- TGT: RET G810R kinase (Homo sapiens, UniProt P07949, G810R)
- Sequence (P07949 29-1114 G810R): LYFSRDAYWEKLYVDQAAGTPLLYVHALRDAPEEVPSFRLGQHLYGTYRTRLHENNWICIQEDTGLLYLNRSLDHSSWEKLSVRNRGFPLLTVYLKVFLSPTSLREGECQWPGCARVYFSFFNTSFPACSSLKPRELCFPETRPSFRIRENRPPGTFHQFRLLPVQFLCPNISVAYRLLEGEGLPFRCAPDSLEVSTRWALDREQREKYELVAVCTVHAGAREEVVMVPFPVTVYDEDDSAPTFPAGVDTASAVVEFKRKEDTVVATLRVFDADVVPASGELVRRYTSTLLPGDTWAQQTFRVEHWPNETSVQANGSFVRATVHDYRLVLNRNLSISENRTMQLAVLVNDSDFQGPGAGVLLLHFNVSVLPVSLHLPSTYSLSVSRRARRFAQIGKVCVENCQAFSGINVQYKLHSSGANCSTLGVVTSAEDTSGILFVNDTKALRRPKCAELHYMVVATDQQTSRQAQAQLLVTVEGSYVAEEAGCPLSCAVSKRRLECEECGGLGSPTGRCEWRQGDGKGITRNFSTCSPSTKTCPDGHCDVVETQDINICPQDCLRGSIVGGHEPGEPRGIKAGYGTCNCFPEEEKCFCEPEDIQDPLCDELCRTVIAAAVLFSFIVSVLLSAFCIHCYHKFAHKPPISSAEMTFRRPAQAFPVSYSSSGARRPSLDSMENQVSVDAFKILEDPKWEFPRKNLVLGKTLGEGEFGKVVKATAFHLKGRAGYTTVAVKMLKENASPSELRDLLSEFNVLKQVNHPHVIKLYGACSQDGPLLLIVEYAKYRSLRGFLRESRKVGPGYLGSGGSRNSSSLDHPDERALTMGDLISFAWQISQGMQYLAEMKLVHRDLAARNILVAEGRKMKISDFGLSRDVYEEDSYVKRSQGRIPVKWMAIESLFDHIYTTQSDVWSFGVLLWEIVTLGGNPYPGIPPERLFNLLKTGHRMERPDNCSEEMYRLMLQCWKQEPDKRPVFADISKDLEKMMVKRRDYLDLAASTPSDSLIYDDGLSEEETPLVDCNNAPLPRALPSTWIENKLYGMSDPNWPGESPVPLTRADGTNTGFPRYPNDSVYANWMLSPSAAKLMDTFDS
- TEST_SUMMARY: HTRF method for testing the inhibitory activity against RET G810R
- TEST_CONDITIONS: HTRF
Rule: IC50 below 0.02 µM gives Fulfilled. Equal to or above 0.02 µM gives Not fulfilled.

COMPOUND_STRING: COc1ccc(CN2C3CC2CN(c2ccc(-c4cc(NCC(C)(C)O)cn5ncc(C#N)c45)cn2)C3)cn1
ASSIGNED_LABEL: Not fulfilled

COMPOUND_STRING: CCNc1cc(-c2ccc(N3CC4CC(C3)N4Cc3ccc(OC)nc3)nc2)c2c(C#N)cnn2c1
ASSIGNED_LABEL: Fulfilled

COMPOUND_STRING: COc1ccc(CN2C3CC2CN(c2ccc(-c4cc(N5CCOCC5)cn5ncc(C#N)c45)cn2)C3)cn1
ASSIGNED_LABEL: Not fulfilled

COMPOUND_STRING: COc1ccc(CN2C3CC2CN(c2ccc(-c4cc(Br)cn5ncc(C#N)c45)cn2)C3)cn1
ASSIGNED_LABEL: Not fulfilled

COMPOUND_STRING: CCCNc1cc(-c2ccc(N3CC4CC(C3)N4Cc3ccc(OC)nc3)nc2)c2c(C#N)cnn2c1
ASSIGNED_LABEL: Fulfilled

Here is the next item to consider.
Problem: Is IC50 strictly under 0.02 µM for the entry COc1ccc(CN2C3CC2CN(c2ccc(-c4cc(NCC(F)(F)F)cn5ncc(C#N)c45)cn2)C3)cn1 ?
Result: Fulfilled
